TARGET_SYSTEM: Cannabinoid receptor 2 (Homo sapiens, UniProt P34972)
Sequence (P34972 whole entry): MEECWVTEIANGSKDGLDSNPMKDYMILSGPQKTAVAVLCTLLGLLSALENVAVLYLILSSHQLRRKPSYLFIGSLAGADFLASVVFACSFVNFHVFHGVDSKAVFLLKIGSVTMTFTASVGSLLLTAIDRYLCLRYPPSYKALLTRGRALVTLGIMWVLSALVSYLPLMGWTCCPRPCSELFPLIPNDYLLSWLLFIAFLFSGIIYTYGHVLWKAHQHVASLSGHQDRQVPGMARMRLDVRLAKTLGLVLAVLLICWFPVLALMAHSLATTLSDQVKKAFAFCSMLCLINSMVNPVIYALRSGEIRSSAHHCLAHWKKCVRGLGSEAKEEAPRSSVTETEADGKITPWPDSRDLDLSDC
Using Ki as the sorting value, the categories are class A (below 0.3 µM), class B (0.3 µM to below 2 µM), class C (2 µM or more)

Worked set:
{"SMI": "CCCCCCc1ccc(OCCCCCCCCCCC(=O)NCC2CC2)cc1O", "QUALITATIVE_LABEL": "class C"}
{"SMI": "CCCCCc1cc(O)cc(OCCCCCCCCCCCC(=O)NC2CC2)c1", "QUALITATIVE_LABEL": "class B"}
{"SMI": "CCCCCCc1c(O)cccc1OCCCCCCCCCCC(=O)NCc1ccc(OC)c(O)c1", "QUALITATIVE_LABEL": "class C"}
{"SMI": "CCCCCCc1ccc(OCCCCCCCC(=O)NCCO)cc1O", "QUALITATIVE_LABEL": "class C"}
{"SMI": "CCCCCc1cc(O)cc(OCCCCCCCCCCCC(=O)NCCO)c1", "QUALITATIVE_LABEL": "class A"}
{"SMI": "CCCCCc1cc(O)cc(OCCCCCCCCCCC(=O)NCC2CC2)c1", "QUALITATIVE_LABEL": "class A"}

Form: Item = CCCCCCc1ccc(OCCCCCCCCCCCC(=O)NC2CC2)cc1O ; Class = ?
class C

* * *

TARGET_SYSTEM: Cannabinoid receptor (Homo sapiens) (UniProt P34972+P21554)
Sequence (P34972 whole entry, looked up, one chain of several): as the sequence (P34972 whole entry) above
MEASUREMENT_PROTOCOL: Selectivity for human CB1 receptor over human CB2 receptor
Type: protein assay
READOUT: Ratio Ki

Value lookup for Ratio Ki; key = CCCCCc1cc(O)cc(OCCCCCCCCCCC(=O)NCC2CC2)c1
6.4

* * *

TARGET_SYSTEM: UniProtKB P97612
Sequence (P97612 whole entry): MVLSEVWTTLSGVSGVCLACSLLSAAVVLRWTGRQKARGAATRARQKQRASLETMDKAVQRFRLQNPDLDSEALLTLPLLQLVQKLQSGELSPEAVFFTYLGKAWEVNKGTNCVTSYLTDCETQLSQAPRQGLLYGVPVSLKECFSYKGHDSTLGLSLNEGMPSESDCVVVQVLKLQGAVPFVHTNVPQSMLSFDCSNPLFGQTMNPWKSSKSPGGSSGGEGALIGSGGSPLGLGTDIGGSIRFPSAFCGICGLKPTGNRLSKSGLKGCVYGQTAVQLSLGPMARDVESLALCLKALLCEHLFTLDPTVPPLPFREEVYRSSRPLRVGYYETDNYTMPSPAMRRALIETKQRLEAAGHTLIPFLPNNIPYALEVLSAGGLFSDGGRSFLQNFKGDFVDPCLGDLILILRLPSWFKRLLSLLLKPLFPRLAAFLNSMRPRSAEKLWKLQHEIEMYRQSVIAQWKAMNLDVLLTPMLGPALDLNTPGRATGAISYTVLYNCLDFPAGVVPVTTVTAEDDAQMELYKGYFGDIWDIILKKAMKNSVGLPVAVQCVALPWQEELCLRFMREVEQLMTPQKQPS
Entries annotated with measured pIC50
For clarity, pIC50 is expressed as the negative log10 of concentration in mol/L.

Could you share what pIC50 was measured for CCCCCc1cc(O)cc(OCCCCCCCCCCC(=O)NCc2ccc(OC)c(O)c2)c1 , tested on UniProtKB P97612?
5.00

Input CCCCCCc1c(O)cccc1OCCCCCCCC(=O)NC1CC1
4.30

What do we get for CCCCCCc1c(O)cccc1OCCCCCCCCCCC(=O)NCc1ccc(OC)c(O)c1 ?
4.30

Also need CCCCCCc1c(O)cccc1OCCCCCCCC(=O)NCCO , thanks.
4.60

// same read-out, input: CCCCCc1cc(O)cc(OCCCCCCCCCCCC(=O)NC2CC2)c1
4.30

And CCCCCCc1ccc(OCCCCCCCC(=O)NCCO)cc1O ?
4.30

* * *

TARGET_SYSTEM: Cannabinoid receptor 1 (Homo sapiens, UniProt P21554)
Sequence (P21554 whole entry): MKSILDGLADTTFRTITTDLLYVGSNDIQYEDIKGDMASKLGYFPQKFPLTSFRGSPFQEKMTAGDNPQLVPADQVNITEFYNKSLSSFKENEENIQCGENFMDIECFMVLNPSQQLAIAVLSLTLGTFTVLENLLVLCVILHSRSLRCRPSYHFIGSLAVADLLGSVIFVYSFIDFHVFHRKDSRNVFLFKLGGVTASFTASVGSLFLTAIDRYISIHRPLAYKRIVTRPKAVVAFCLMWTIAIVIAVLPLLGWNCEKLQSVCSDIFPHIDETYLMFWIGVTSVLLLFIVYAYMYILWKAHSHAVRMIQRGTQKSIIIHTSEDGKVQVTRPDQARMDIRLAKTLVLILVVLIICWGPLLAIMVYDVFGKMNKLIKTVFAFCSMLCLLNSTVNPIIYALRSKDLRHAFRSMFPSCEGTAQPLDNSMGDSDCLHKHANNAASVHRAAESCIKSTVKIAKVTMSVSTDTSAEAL
Catalogue of pKi values
Just the number, please; pKi means minus log10 of the concentration in mol/L.

Sample records with pKi:
{"SMI": "CCCCCCc1ccc(OCCCCCCCC(=O)NC2CC2)cc1O", "READOUT": "pKi", "TEST_RESULT": 7.25}
{"SMI": "CCCCCc1cc(O)cc(OCCCCCCCCCCCC(=O)NC2CC2)c1", "READOUT": "pKi", "TEST_RESULT": 6.12}
{"SMI": "CCCCCc1cc(O)cc(OCCCCCCCC(=O)NC2CC2)c1", "READOUT": "pKi", "TEST_RESULT": 7.80}
{"SMI": "CCCCCCc1c(O)cccc1OCCCCCCCC(=O)NC1CC1", "READOUT": "pKi", "TEST_RESULT": 6.51}
{"SMI": "CCCCCc1cc(O)cc(OCCCCCCCCCCC(=O)NCCc2ccc(O)c(O)c2)c1", "READOUT": "pKi", "TEST_RESULT": 6.25}

Which value of pKi has been reported for CCCCCc1cc(O)cc(OCCCCCCCC(=O)NCCO)c1 in the records?
6.89

Repeat with CCCCCc1cc(O)cc(OCCCCCCCCCCC(=O)NCc2ccc(OC)c(O)c2)c1
5.68

* * *

The following are reported Ki results, target or system Cannabinoid receptor 2 (Homo sapiens).
Lab book: enter the figure in nM, no units written.

These recorded examples may help you get a feel for the data.
{"SMI": "CCCCCCc1ccc(OCCCCCCCC(=O)NC2CC2)cc1O", "TARGET_SYSTEM": "Cannabinoid receptor 2 (Homo sapiens)", "UNIT_TEXT": "nM", "Ki": 280}
{"SMI": "CCCCCc1cc(O)cc(OCCCCCCCC(=O)NCCO)c1", "TARGET_SYSTEM": "Cannabinoid receptor 2 (Homo sapiens)", "UNIT_TEXT": "nM", "Ki": 390}
{"SMI": "CCCCCc1cc(O)cc(OCCCCCCCCCCC(=O)NCc2ccc(OC)c(O)c2)c1", "TARGET_SYSTEM": "Cannabinoid receptor 2 (Homo sapiens)", "UNIT_TEXT": "nM", "Ki": 1650}
{"SMI": "CCCCCCc1c(O)cccc1OCCCCCCCC(=O)NCCO", "TARGET_SYSTEM": "Cannabinoid receptor 2 (Homo sapiens)", "UNIT_TEXT": "nM", "Ki": 3940}
{"SMI": "CCCCCCc1c(O)cccc1OCCCCCCCC(=O)NC1CC1", "TARGET_SYSTEM": "Cannabinoid receptor 2 (Homo sapiens)", "UNIT_TEXT": "nM", "Ki": 1800}

In the following, a different compound is considered.
Would you mind telling me what Ki value was observed for CCCCCc1cc(O)cc(OCCCCCCCC(=O)NC2CC2)c1 ?
39

* * *

TARGET_SYSTEM: Cannabinoid receptor (Homo sapiens) (UniProt P34972+P21554)
MEASUREMENT_PROTOCOL: Selectivity for human CB1 receptor over human CB2 receptor
Assay type: protein assay
Param threshold (1) applies to Ratio Ki; output fulfilled when value >= threshold, not fulfilled when value < threshold.

{"SMI": "CCCCCc1cc(O)cc(OCCCCCCCCCCC(=O)NCc2ccc(OC)c(O)c2)c1", "TARGET_SYSTEM": "Cannabinoid receptor (Homo sapiens) (UniProt P34972+P21554)", "QUALITATIVE_LABEL": "fulfilled"}
{"SMI": "CCCCCCc1ccc(OCCCCCCCC(=O)NCCO)cc1O", "TARGET_SYSTEM": "Cannabinoid receptor (Homo sapiens) (UniProt P34972+P21554)", "QUALITATIVE_LABEL": "not fulfilled"}
{"SMI": "CCCCCCc1ccc(OCCCCCCCCCCC(=O)NCc2ccc(OC)c(O)c2)cc1O", "TARGET_SYSTEM": "Cannabinoid receptor (Homo sapiens) (UniProt P34972+P21554)", "QUALITATIVE_LABEL": "fulfilled"}
{"SMI": "CCCCCc1cc(O)cc(OCCCCCCCCCCCC(=O)NCCO)c1", "TARGET_SYSTEM": "Cannabinoid receptor (Homo sapiens) (UniProt P34972+P21554)", "QUALITATIVE_LABEL": "fulfilled"}
{"SMI": "CCCCCCc1ccc(OCCCCCCCC(=O)NC2CC2)cc1O", "TARGET_SYSTEM": "Cannabinoid receptor (Homo sapiens) (UniProt P34972+P21554)", "QUALITATIVE_LABEL": "not fulfilled"}

Can CCCCCCc1c(O)cccc1OCCCCCCCC(=O)NC1CC1 be said to have Ratio Ki at or above 1?
not fulfilled

Okay, and CCCCCc1cc(O)cc(OCCCCCCCCCCCC(=O)NC2CC2)c1 ?
fulfilled

And CCCCCCc1c(O)cccc1OCCCCCCCC(=O)NCCO ?
not fulfilled

Check CCCCCc1cc(O)cc(OCCCCCCCC(=O)NC2CC2)c1 too.
not fulfilled

* * *

Data export: Ki values recorded with Cannabinoid receptor 1 (Homo sapiens, UniProt P21554).
Give the value, in units of nM, as a plain number.

See these solved cases before continuing.
{"SMI": "CCCCCc1cc(O)cc(OCCCCCCCCCCCC(=O)NCCO)c1", "READOUT": "Ki", "UNIT_TEXT": "nM", "TEST_RESULT": 60}
{"SMI": "CCCCCCc1c(O)cccc1OCCCCCCCC(=O)NCCO", "READOUT": "Ki", "UNIT_TEXT": "nM", "TEST_RESULT": 260}
{"SMI": "CCCCCc1cc(O)cc(OCCCCCCCCCCC(=O)NCC2CC2)c1", "READOUT": "Ki", "UNIT_TEXT": "nM", "TEST_RESULT": 510}

What value of Ki has been recorded for this entry: CCCCCCc1ccc(OCCCCCCCC(=O)NCCO)cc1O
190

Can you check CCCCCCc1c(O)cccc1OCCCCCCCCCCC(=O)NCc1ccc(OC)c(O)c1 next?
2820
